Experiment: folding enthalpy; higher = less favourable; fluorescence melt of hairpins on a sequencing array, two-state fit
Settings: sodium 0.088 M
Reported folding enthalpy is given for each of the following sequences.

- residue.string: "GCAAGTCGAAAGACATGC (((.(((....))).)))"
  folding enthalpy (kcal/mol): -29.1
- residue.string: "GATCCTCTTTAGGATC ((((((....))))))"
  folding enthalpy (kcal/mol): -46.6
- residue.string: "GATCGATTTCTCGATC ((((((....))))))"
  folding enthalpy (kcal/mol): -36.4
- residue.string: "GGCTAGCGAAAGCTTGCC (((.(((....))).)))"
  folding enthalpy (kcal/mol): -36.3
